test system: Trypanosoma cruzi; assay: Induction of apoptosis in Trypanosoma cruzi trypomastigotes assessed as early apoptotic cells at 2 times IC50 incubated for 24 hrs by annexin V-FITC/PI staining based flow cytometry (reference value: 0.10 %); assay type: functional
MEASURED_ATTRIBUTE: Activity

[[record]]
compound = "S=C(N/N=C/c1ccccn1)Nc1ccccc1"
assayed_target = "Trypanosoma cruzi"
measured_attribute = "Activity"
meas_value = "10.3%"

[[record]]
compound = "O=C(Cn1ccnc1[N+](=O)[O-])NCc1ccccc1"
assayed_target = "Trypanosoma cruzi"
measured_attribute = "Activity"
meas_value = "1.18%"

[[record]]
compound = "CC1(C)S/C(=N/N=C/c2ccccn2)N(c2ccccc2)C1=O"
assayed_target = "Trypanosoma cruzi"
measured_attribute = "Activity"
meas_value = "0.33%"

[[record]]
compound = "CC(C)C1S/C(=N/N=C/c2ccccn2)N(c2ccccc2)C1=O (centres undefined)"
assayed_target = "Trypanosoma cruzi"
measured_attribute = "Activity"
meas_value = "0.13%"

